- ASSAY NOTES: Peak blood concentration in guinea pig at a dose of 3 mg/kg upon subcutaneous administration
- Format: ADME, organism-based, Cavia porcellus
- Design: dose 3 mg/kg, route subcutaneous
- MEASUREMENT CONDITIONS: sc
MEASUREMENT KIND: Cmax (ng/mL)
All answers are understood in ng/mL, so give the number only.

Summary for this compound, `CN(C)CCN(Cc1ccc(-c2ccc(CNCCc3ccccc3)cc2)cc1)C(=O)CCC1CCCC1.Cl.Cl` : Cmax is 388

* * *

Ki values recorded for UniProt P34969
Sequence (P34969 whole entry): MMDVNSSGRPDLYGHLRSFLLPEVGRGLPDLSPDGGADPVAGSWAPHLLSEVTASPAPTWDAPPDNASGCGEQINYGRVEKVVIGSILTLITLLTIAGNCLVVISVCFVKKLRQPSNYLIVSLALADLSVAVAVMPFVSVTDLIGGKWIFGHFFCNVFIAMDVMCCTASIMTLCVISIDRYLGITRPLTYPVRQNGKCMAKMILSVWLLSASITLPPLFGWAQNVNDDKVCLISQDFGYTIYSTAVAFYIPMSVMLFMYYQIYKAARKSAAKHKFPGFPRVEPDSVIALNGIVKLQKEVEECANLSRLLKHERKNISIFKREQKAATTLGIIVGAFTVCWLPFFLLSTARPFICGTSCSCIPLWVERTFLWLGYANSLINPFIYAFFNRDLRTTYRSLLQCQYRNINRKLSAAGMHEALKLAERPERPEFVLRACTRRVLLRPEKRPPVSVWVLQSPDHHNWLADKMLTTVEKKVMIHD
Please state the figure in µM; there is no need to write the unit.

CN(C)CCN(Cc1ccc(-c2ccc(CNCCc3ccccc3)cc2)cc1)C(=O)/C=C/c1ccccc1 | 1

Proceed to the following item.
Sure, the documented Ki for `O=C(/C=C/c1ccccc1)N(Cc1ccc(-c2ccc(CNCCc3ccccc3)cc2)cc1)Cc1cccnc1` is 1.26

* * *

- SYSTEM: 5-hydroxytryptamine receptor 1A (Homo sapiens, UniProt P08908)
- Sequence (P08908 whole entry): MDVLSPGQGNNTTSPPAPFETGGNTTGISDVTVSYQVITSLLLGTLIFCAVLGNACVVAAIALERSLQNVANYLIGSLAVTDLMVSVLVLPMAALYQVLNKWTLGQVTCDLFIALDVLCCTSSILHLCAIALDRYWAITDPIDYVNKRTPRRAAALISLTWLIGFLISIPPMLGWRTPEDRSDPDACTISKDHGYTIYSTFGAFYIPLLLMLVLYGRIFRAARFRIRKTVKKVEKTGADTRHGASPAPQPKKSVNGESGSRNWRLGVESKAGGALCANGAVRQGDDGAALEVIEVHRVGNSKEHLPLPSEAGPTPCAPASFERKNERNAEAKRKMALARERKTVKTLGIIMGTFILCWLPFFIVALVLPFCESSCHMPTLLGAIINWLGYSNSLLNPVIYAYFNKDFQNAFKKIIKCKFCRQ
MEASUREMENT KIND: pKi
On this scale, pKi is minus log10 of a concentration expressed in M (mol/L).

Query `O=C(/C=C/c1ccccc1)N(Cc1ccc(-c2ccc(CNCCc3ccccc3)cc2)cc1)Cc1cccnc1` yields pKi of 6.00

* * *

- ASSAY NOTES: Volume of distribution in guinea pig at a dose of 1 mg/kg upon intravenous administration
- Assay type: ADME, organism-based, Cavia porcellus
- Parameters: dose 1 mg/kg, route intravenous
- MEASUREMENT CONDITIONS: in vivo, read-out: Vdss
MEASUREMENT KIND: Vd

`CN(C)CCN(Cc1ccc(-c2ccc(CNCCc3ccccc3)cc2)cc1)C(=O)CCC1CCCC1.Cl.Cl` yielded Vd of 6.1 L/kg

* * *

- SYSTEM: UniProt P47898
MEASUREMENT KIND: Ki
Show the value, then the unit it is measured in.

COc1cccc(CCN(Cc2ccc(-c3ccc(CNCCc4ccccc4)cc3)cc2)C(=O)/C=C/c2ccccc2)c1 | 501 nM

Given the molecule `CN(C)CCN(Cc1ccc(-c2ccc(CNCCc3ccccc3)cc2)cc1)C(=O)CCC1CCCC1` and test system UniProt P47898, the measured Ki is 6.31 nM

Reported Ki (UniProt P47898) for entry `CN(C)CCN(Cc1ccc(-c2ccc(CNCCc3ccccn3)cc2)cc1)C(=O)CCC1CCCC1` is 31.6 nM

Short answer on UniProt P47898 for `CN(C)CCN(Cc1ccc(-c2ccc(CNCCc3ccccc3)cc2)cc1)C(=O)Nc1ccccc1` , Ki: 398 nM

* * *

Ki, 5-hydroxytryptamine receptor 5A (Homo sapiens), per-entry values.
Numeric only. Scale: nM

Solved cases (5 shown):
O=C(/C=C/c1ccccc1)N(Cc1ccc(-c2ccc(CNCc3ccc4c(c3)OCO4)cc2)cc1)Cc1cccnc1 | 1000
CN(C)CCN(Cc1ccc(-c2ccc(CN)cc2)cc1)C(=O)CCC1CCCC1 | 3160
O=C(c1ccc2c(c1)OCO2)N(Cc1ccc(-c2ccc(CNCCc3ccccc3)cc2)cc1)Cc1cccnc1 | 200
CN(C)CCN(Cc1ccc(-c2ccc(CNCCc3ccccc3)cc2)nc1)C(=O)CCC1CCCC1 | 31.6
CN(C)CCN(Cc1ccc(-c2ccc(CNCCc3ccccc3)cc2)cc1)C(=O)c1ccccc1 | 631

What the record says about `CN(C)CCN(Cc1ccc(-c2ccc(CNC3Cc4ccccc4C3)cc2)cc1)C(=O)CCC1CCCC1` : Ki is 251

Ki reading for `c1ccc(CCNCc2ccc(-c3ccc(CNC4CCN(Cc5ccccc5)CC4)cc3)cc2)cc1` : 126
